# Tested on: crabgrass (Digitaria sanguinalis)
# test: Test B pre/postemergence
# Type: in vivo
# conditionNotes: Digitaria sanguinalis, post-emergence, Postemergence, 500 g ai/ha; scale 0 to 100; read-out: Plant response rating, Crabgrass
measuredProperty: pest or weed control at 500 g/ha (%)
Quick reminder: number only, in %, skip the unit.

> print(dat)
                                   molecule                        studysystem                  measuredproperty  quantitativereadout
1  COC(=O)c1nc(C(C)C)nc(N)c1Br [Compound 3]  crabgrass (Digitaria sanguinalis)  pest or weed control at 500 g/ha                   40
2  CCOC(=O)c1nc(C(C)(C)C)nc(N)c1Br [Compound 36]  crabgrass (Digitaria sanguinalis)  pest or weed control at 500 g/ha                    0
3  CCOC(=O)c1nc(C2CC2)nc(NN)c1Br [Compound 42]  crabgrass (Digitaria sanguinalis)  pest or weed control at 500 g/ha                   30
4      Nc1nc(C2CC2)nc(CO)c1Br [Compound 21]  crabgrass (Digitaria sanguinalis)  pest or weed control at 500 g/ha                    0
5  CCOC(=O)c1nc(C2CC2)nc(N)c1F [Compound 30]  crabgrass (Digitaria sanguinalis)  pest or weed control at 500 g/ha                   90

We now examine a further molecule.
molecule COC(=O)c1nc(C2CC2)nc(N)c1F [Compound 25] , pest or weed control at 500 g/ha observed: 80

Origin of measurements: patent US8802597B2
